Measured Kd (Cyclin-dependent kinase 2 (Homo sapiens, UniProt P24941))
Answers are plain numbers, in µM.

smi: CN(C(=O)Nc1ccccc1)C1CCCC1
measured.endpoint: Kd
unit.label: µM
observed.measurement: 2000
//
smi: CN(C(=O)Nc1ccccn1)C1CCCC1
measured.endpoint: Kd
unit.label: µM
observed.measurement: 2510
//
smi: CN(C(=O)NC1CCCC1)c1ccccn1
measured.endpoint: Kd
unit.label: µM
observed.measurement: 1580

Could you report Kd for every entry in the following list?
1. O=C(Nc1ccccc1)NC1CCCC1
2. O=C(Nc1ccccn1)NC1CCCC1

1: 1000; 2: 398

----------
Measured IC50 (Epidermal growth factor receptor (Mus musculus, UniProt Q01279))

Worked cases, answers included:
smi: O=C(Nc1ccccc1)NC1CCCC1
IC50: 200 µM

smi: CN(C(=O)N(C)C1CCCC1)c1ccccn1
IC50: > 1000 µM

smi: O=C(Nc1ccccn1)NC1CCCC1
IC50: 398 µM

smi: CN(C(=O)N(C)C1CCCC1)c1ccccc1
IC50: 126 µM

Okay, now this compound:
Record request: IC50 value, item CN(C(=O)NC1CCCC1)c1ccccc1 100 µM

----------
- experiment: Aqueous solubility of compound at pH 7.4
- Format: physicochemical
Can you tell me solubility for the items I'm about to list?
Answers are plain numbers, in µM.

Worked cases, answers included:
smi: CN(C(=O)NC1CCCC1)c1ccccn1
measured.endpoint: solubility
observed.measurement: 87

smi: O=C(Nc1ccccn1)NC1CCCC1
measured.endpoint: solubility
observed.measurement: 93

smi: CN(C(=O)NC1CCCC1)c1ccccc1
measured.endpoint: solubility
observed.measurement: 104

smi: CN(C(=O)N(C)C1CCCC1)c1ccccc1
measured.endpoint: solubility
observed.measurement: 77

smi: CN(C(=O)Nc1ccccc1)C1CCCC1
measured.endpoint: solubility
observed.measurement: 98

Could you report solubility for every entry in the following list?
1. CN(C(=O)N(C)C1CCCC1)c1ccccn1
2. CN(C(=O)Nc1ccccn1)C1CCCC1

1. 114
2. 102

Record request: solubility value, item O=C(Nc1ccccc1)NC1CCCC1 85

----------
- experiment: Chromatographic hydrophobicity index, log D of the compound by HPLC analysis
- Format: physicochemical
Can you tell me chromatographic logD for the items I'm about to list?
Answers are plain numbers.

Worked cases, answers included:
smi: CN(C(=O)Nc1ccccc1)C1CCCC1
chromatographic logD: 2.8

smi: CN(C(=O)N(C)C1CCCC1)c1ccccn1
chromatographic logD: 2.2

smi: O=C(Nc1ccccn1)NC1CCCC1
chromatographic logD: 2.4

Could you report chromatographic logD for every entry in the following list?
1. O=C(Nc1ccccc1)NC1CCCC1
2. CN(C(=O)NC1CCCC1)c1ccccc1
3. CN(C(=O)N(C)C1CCCC1)c1ccccc1
4. CN(C(=O)Nc1ccccn1)C1CCCC1
5. CN(C(=O)NC1CCCC1)c1ccccn1

1. 2.4
2. 2.7
3. 3.6
4. 2.1
5. 3
